Quick reference for pIC50 among some compounds
Target: human JAK3 (Homo sapiens (Human))
Sequence (P52333 822-1111): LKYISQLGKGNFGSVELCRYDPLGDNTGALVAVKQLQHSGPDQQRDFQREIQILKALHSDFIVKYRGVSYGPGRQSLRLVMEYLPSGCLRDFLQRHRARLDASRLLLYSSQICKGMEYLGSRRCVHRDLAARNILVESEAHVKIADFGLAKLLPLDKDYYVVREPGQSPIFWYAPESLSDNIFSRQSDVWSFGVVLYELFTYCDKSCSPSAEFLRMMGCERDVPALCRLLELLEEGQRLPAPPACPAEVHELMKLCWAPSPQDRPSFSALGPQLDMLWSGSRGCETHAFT
Experiment: JAK3 kinase domain Alphascreen enzyme screening
Format: biochemical
Conditions: read-out: JAK3_ IC50_nM
pIC50: −log10 of the molar value. Counter-ions that a name gives are not always drawn.

Use the examples below as a reference point.
- compound: "C#CCN(c1ccc(-c2ccnc(Nc3ccc(N4CCOCC4)cc3)n2)cc1)S(C)(=O)=O [Compound 57, tosylate]"
  value observed: "> 6.00"
- compound: "N#CCNC(=O)c1ccc(-c2ccnc(Nc3ccc(N4CCC(CO)CC4)cc3)n2)cc1 [Compound 42]"
  value observed: "> 6.30"
- compound: "CCN1CCC(Oc2ccc(Nc3nccc(-c4ccc(C(=O)NCC#N)cc4)n3)cc2)CC1 [Compound 80]"
  value observed: "> 6.30"
- compound: "O=C(NCc1ccncc1)c1ccc(-c2ccnc(Nc3ccc(N4CCOCC4)cc3)n2)cc1 [Compound 17]"
  value observed: "> 6.00"
- compound: "COc1cc(Nc2nccc(-c3ccc(C(=O)NCC#N)cc3)n2)cc(OC)c1OC [Compound 20]"
  value observed: "> 7.00"
- compound: "N#CCNC(=O)c1ccc(-c2ccnc(Nc3ccc(N4CCS(=O)(=O)CC4)cc3)n2)cc1 [Compound 89]"
  value observed: "> 6.30"
- compound: "O=C(NCC1CCCO1)c1ccc(-c2ccnc(Nc3ccc(N4CCOCC4)cc3)n2)cc1 (centres unmarked) [Compound 21]"
  value observed: "> 6.30"
- compound: "N#CCC(=O)Nc1ccc(-c2ccnc(Nc3ccc(N4CCOCC4)cc3)n2)cc1C(F)(F)F [Compound 76]"
  value observed: "> 6.00"

Reported pIC50 (human JAK3 (Homo sapiens (Human))) for entry N#CCNC(=O)c1ccc(-c2ccnc(Nc3ccc(N4CCC(O)CC4)cc3)n2)cc1 [Compound 36] is > 7.00

Reported pIC50 (human JAK3 (Homo sapiens (Human))) for entry N#CCNC(=O)c1ccc(-c2nc(Nc3ccc(N4CCOCC4)cc3)ncc2Cl)cc1 [Compound 53] is > 6.30

Reported pIC50 (human JAK3 (Homo sapiens (Human))) for entry O=C(NCc1cccnc1)c1ccc(-c2ccnc(Nc3ccc(N4CCOCC4)cc3)n2)cc1 [Compound 18] is > 6.00

Reported pIC50 (human JAK3 (Homo sapiens (Human))) for entry N#CCNC(=O)c1ccc(-c2ccnc(Nc3ccc(OC4CCNCC4)cc3)n2)cc1 [Compound 59] is > 6.30

Reported pIC50 (human JAK3 (Homo sapiens (Human))) for entry C=CCOCc1cc(Nc2nccc(-c3ccc(C(=O)NCC#N)cc3)n2)ccc1N1CCOCC1 [Compound 79] is > 6.30

Reported pIC50 (human JAK3 (Homo sapiens (Human))) for entry CC(=O)N1CCN(c2ccc(Nc3nccc(-c4ccc(C(=O)NCC#N)cc4)n3)cc2)CC1 [Compound 55] is > 7.00

Reported pIC50 (human JAK3 (Homo sapiens (Human))) for entry N#CCNC(=O)c1ccc(-c2nc(Nc3ccc(N4CCOCC4)cc3)ncc2Br)cc1 [Compound 65] is > 7.00

Reported pIC50 (human JAK3 (Homo sapiens (Human))) for entry Cc1cnc(Nc2ccc(N3CCC(NS(C)(=O)=O)CC3)cc2)nc1-c1ccc(C(=O)NCC#N)cc1 [Compound 56] is > 7.00

Reported pIC50 (human JAK3 (Homo sapiens (Human))) for entry N#CCNC(=O)c1ccc(-c2nc(Nc3ccc(N4CCOCC4)cc3)ncc2F)cc1 [Compound 93] is > 6.30
